# Tested on: ICAM-1 expression in BEAS2B cells
# method: Poly I:C-induced ICAM-1 induction in BEAS2B cells
# Assay type: cell-based
# condition.set: Homo sapiens, BEAS-2B; BEAS2B cells, poly I:C 1 μg/mL, 18 hr; read-out: BEAS2B (polyIC) ICAM1 IC50
pIC50: −log10 of the molar value.
Give Satisfied when the value for pIC50 is at least 8. Give Not satisfied when it is less.

Here are 4 molecules together with their reported answers.
{"molecule": "Cc1ccc(-n2nc(C(C)C)cc2NC(=O)Nc2ccc(Oc3ccnc4[nH]c(=O)cnc34)c3ccccc23)cc1 [Example 30]", "classification": "Not satisfied"}
{"molecule": "Cc1ccc(-n2nc(C3CC3)cc2NC(=O)Nc2ccc(Oc3ccnc4[nH]c(=O)cnc34)c3ccccc23)cc1 [Example 28]", "classification": "Not satisfied"}
{"molecule": "CC(C)(C)c1cc(NC(=O)Nc2ccc(Oc3ccnc4[nH]c(=O)[nH]c34)c3ncccc23)n(-c2ccccc2)n1 [Example 4]", "classification": "Not satisfied"}
{"molecule": "CCn1c(=O)[nH]c2nccc(Oc3ccc(NC(=O)Nc4cc(C(C)(C)C)nn4-c4ccc(OC)cc4)c4ccccc34)c21 [Example 11]", "classification": "Satisfied"}

Moving on to another molecule below.
Prompt line: Tell me whether pIC50 is at least 8 here: COc1ccc(-n2nc(C(C)(C)C)cc2NC(=O)Nc2ccc(OCc3ccnc4[nH]c(=O)cnc34)c3ccccc23)cc1 [Example 23]
Response line: Not satisfied

###

# system: p38 MAPK alpha (MAPK14) (Homo sapiens (Human))
# Sequence (Q16539 whole entry): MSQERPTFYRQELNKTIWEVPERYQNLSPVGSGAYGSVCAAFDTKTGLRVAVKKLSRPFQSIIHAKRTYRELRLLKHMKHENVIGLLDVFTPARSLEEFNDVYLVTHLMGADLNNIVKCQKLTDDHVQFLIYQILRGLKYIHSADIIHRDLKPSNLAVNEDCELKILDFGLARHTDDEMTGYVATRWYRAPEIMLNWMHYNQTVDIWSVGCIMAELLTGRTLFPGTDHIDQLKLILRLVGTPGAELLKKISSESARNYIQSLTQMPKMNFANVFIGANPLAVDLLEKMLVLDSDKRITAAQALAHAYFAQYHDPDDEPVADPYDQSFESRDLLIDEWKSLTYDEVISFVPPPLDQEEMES
# pIC50 listing for each entry below
Please express pIC50 as -log10 of the molar concentration.

Some solved entries appear below for comparison.
{"compound": "Cc1ccc(-n2nc(C3CC3)cc2NC(=O)Nc2ccc(Oc3ccnc4[nH]c(=O)cnc34)c3ccccc23)cc1", "system": "p38 MAPK alpha (MAPK14) (Homo sapiens (Human))", "pIC50": 8.70}
{"compound": "Cc1nc2c(Oc3ccc(NC(=O)Nc4cc(C(C)(C)C)nn4-c4ccccc4)c4ccccc34)ccnc2[nH]c1=O", "system": "p38 MAPK alpha (MAPK14) (Homo sapiens (Human))", "pIC50": 8.52}
{"compound": "COc1ccc(-n2nc(C(C)(C)C)cc2NC(=O)Nc2ccc(OCc3ccnc4[nH]c(=O)cnc34)c3ccccc23)cc1", "system": "p38 MAPK alpha (MAPK14) (Homo sapiens (Human))", "pIC50": 7.92}
{"compound": "COc1ccc(-n2nc(C(C)(C)C)cc2NC(=O)Nc2ccc(Oc3ccnc4[nH]c(=O)n(C)c34)c3ccccc23)cc1", "system": "p38 MAPK alpha (MAPK14) (Homo sapiens (Human))", "pIC50": 8.22}
{"compound": "COc1cc(-n2nc(C(C)(C)C)cc2NC(=O)Nc2ccc(Oc3ccnc4[nH]c(=O)cnc34)c3ccccc23)ccc1CO", "system": "p38 MAPK alpha (MAPK14) (Homo sapiens (Human))", "pIC50": 8.30}
{"compound": "CC(C)(C)c1cc(NC(=O)Nc2ccc(Oc3ccnc4[nH]c(=O)cnc34)c3ccccc23)n(-c2ccc(CO)cc2)n1", "system": "p38 MAPK alpha (MAPK14) (Homo sapiens (Human))", "pIC50": 8.15}

Prompt line: Which pIC50 reading was recorded for the molecule `Cc1ccc(-n2nc(C(C)(C)C)cc2NC(=O)Nc2ccc(Oc3ncnc4[nH]c(=O)[nH]c34)c3ccccc23)cc1` ?
Response line: 7.52

Prompt line: # pIC50 lookup, item `CC(C)(C)c1cc(NC(=O)Nc2ccc(Oc3ccnc4[nH]c(=O)cnc34)c3ccccc23)n(-c2ccc(Cl)cc2)n1`
Response line: 8.52

Prompt line: # lookup: pIC50 of `Cc1ccc(-n2nc(C(C)(C)C)cc2NC(=O)Nc2ccc(Oc3ccnc4[nH]c(=O)[nH]c34)c3ccccc23)cc1`
Response line: 7.77

Prompt line: Requested read-out: pIC50. Entry: `CCn1c(=O)[nH]c2nccc(Oc3ccc(NC(=O)Nc4cc(C(C)(C)C)nn4-c4ccc(OC)cc4)c4ccccc34)c21`
Response line: 8.70

Prompt line: What pIC50 value was documented for this molecule, `COc1ccc(-n2nc(C(C)(C)C)cc2NC(=O)Nc2ccc(Oc3ccnc4[nH]c(=O)[nH]c34)c3ncccc23)cc1` ?
Response line: 8.30
